These entries and their values trace back to ChEMBL document CHEMBL1641502.

In this section, each of the molecules is paired with its reported Ki.
- Target system: UniProt P35408
- Experimental protocol: Binding affinity to EP4 receptor in presence of 10% HSA
Remember to follow the number with its unit.

Example entries and their recorded answers appear below.
chemical_string=Cc1cc(C)c2sc(C(=O)N(C)C)c(-c3ccc(CCNC(=O)Cc4ccccn4)cc3)c2c1 meas_value="40 nM"
chemical_string=Cc1cc(C)c2sc(C(=O)N(C)C)c(-c3ccc(CCNC(=O)Cc4c(Cl)cccc4Cl)cc3)c2c1 meas_value="17 nM"
chemical_string=Cc1ccc(S(=O)(=O)NC(=O)NCCc2ccc(-c3c(C(=O)N(C)C)sc4c(F)cc(F)cc34)cc2)cc1 meas_value="40 nM"
chemical_string=COc1ccccc1C1(C(=O)NCCc2ccc(-c3c(C(=O)N(C)C)sc4c(C)cc(C)cc34)cc2)CC1 meas_value="17 nM"
chemical_string=Cc1cc(C)c2sc(C(=O)N(C)C)c(-c3ccc(CCNC(=O)NS(=O)(=O)c4ccc(Cl)cc4)cc3)c2c1 meas_value="2.2 nM"

What does the record list as Ki for Cc1ccc(S(=O)(=O)NC(=O)NCCc2ccc(-c3c(C(=O)N4CCCC4)sc4c(C)cc(C)cc34)cc2)cc1 ?
11 nM

* * *

- Target system: Prostaglandin E2 receptor EP1 subtype (Homo sapiens, UniProt P34995)
- Sequence (P34995 whole entry): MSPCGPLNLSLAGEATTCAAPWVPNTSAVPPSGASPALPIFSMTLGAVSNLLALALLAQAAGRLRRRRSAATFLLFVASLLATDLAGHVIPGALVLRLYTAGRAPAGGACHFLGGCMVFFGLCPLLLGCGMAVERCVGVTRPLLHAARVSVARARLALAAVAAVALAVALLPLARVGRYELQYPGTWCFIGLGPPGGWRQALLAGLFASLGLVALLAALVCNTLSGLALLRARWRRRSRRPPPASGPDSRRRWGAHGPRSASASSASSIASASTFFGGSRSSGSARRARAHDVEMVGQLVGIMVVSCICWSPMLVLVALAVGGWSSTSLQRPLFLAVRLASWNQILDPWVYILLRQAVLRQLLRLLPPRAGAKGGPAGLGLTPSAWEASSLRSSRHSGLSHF
pKi: −log10 of the molar value.
Endpoint: pKi

What does the record list as pKi for Cc1ccc(S(=O)(=O)NC(=O)NCCc2ccc(-c3c(C(=O)N(C)C)sc4c(C)cc(C)cc34)cc2)cc1 ?
< 5.02

* * *

- Target system: Prostaglandin E2 receptor EP4 subtype (Homo sapiens)
- Sequence (P35408 whole entry): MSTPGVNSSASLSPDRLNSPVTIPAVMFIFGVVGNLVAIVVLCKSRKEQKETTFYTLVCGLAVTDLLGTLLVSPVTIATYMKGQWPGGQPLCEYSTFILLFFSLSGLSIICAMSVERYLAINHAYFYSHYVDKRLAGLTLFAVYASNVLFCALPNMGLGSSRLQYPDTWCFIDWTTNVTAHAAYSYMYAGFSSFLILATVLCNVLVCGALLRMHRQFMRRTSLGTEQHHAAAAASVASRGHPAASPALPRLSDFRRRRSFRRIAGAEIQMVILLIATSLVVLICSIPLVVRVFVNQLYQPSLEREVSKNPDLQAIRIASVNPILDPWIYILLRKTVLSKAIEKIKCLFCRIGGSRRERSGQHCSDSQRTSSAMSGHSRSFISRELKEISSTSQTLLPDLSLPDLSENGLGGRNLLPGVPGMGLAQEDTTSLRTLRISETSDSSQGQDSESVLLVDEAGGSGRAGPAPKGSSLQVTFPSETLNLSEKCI
- Experimental protocol: Binding affinity to EP4 receptor in presence of 10% HSA
In this section, each of the compounds is paired with its reported pKi.
pKi (log units): -log10 of the concentration in mol/L.

Example entries and their recorded answers appear below.
chemical_string=COC(=O)c1sc2c(C)cc(C)cc2c1-c1ccc(CCNC(=O)NS(=O)(=O)c2ccc(C)cc2)cc1 meas_value=7.41
chemical_string=Cc1cc(C)c2sc(C(=O)N(C)C)c(-c3ccc(CCNC(=O)OC(C)(C)C)cc3)c2c1 meas_value=5.70
chemical_string=Cc1ccc(S(=O)(=O)NC(=O)NCCc2ccc(-c3c(C(=O)N(C)C)sc4c(C)cc(C)cc34)cc2)cc1 meas_value=8.85

What does the record list as pKi for CNC(=O)c1sc2c(C)cc(C)cc2c1-c1ccc(CCNC(=O)NS(=O)(=O)c2ccc(C)cc2)cc1 ?
6.87

* * *

- Target system: Prostaglandin D2 receptor 2 (Homo sapiens, UniProt Q9Y5Y4)
- Sequence (Q9Y5Y4 whole entry): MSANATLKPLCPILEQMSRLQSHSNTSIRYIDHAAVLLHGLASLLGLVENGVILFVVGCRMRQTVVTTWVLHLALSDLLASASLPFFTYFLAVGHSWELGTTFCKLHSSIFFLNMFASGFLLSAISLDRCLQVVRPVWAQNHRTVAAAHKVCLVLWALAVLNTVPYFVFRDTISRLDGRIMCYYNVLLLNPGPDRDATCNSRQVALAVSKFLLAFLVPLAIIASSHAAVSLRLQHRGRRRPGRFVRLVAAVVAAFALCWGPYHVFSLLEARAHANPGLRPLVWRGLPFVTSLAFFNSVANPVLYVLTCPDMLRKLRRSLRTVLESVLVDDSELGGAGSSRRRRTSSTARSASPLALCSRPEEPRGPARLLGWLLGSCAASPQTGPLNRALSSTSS
- Experimental protocol: Binding affinity to CRTH2 receptor
Endpoint: Ki

What does the record list as Ki for Cc1ccc(S(=O)(=O)NC(=O)NCCc2ccc(-c3c(C(=O)N(C)C)sc4c(C)cc(C)cc34)cc2)cc1 ?
> 7.23 µM

* * *

- Experimental protocol: Binding affinity to DP receptor
Endpoint: Ki (µM)
Output spec: scalar in µM, unitless text.

What does the record list as Ki for Cc1ccc(S(=O)(=O)NC(=O)NCCc2ccc(-c3c(C(=O)N(C)C)sc4c(C)cc(C)cc34)cc2)cc1 ?
0.073

* * *

- Target system: Prostaglandin F2-alpha receptor (Homo sapiens, UniProt P43088)
- Sequence (P43088 whole entry): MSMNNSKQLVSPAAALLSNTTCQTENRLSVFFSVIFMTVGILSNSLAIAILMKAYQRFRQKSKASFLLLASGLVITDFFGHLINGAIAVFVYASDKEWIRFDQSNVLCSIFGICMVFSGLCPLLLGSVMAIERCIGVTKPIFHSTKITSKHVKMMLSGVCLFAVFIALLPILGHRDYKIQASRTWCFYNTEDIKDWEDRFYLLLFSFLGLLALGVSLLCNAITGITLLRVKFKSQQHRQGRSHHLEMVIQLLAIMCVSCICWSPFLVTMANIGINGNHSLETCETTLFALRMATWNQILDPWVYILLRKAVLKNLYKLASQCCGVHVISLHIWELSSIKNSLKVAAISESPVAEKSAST
pKi: −log10 of the molar value.
Endpoint: pKi

What does the record list as pKi for Cc1ccc(S(=O)(=O)NC(=O)NCCc2ccc(-c3c(C(=O)N(C)C)sc4c(C)cc(C)cc34)cc2)cc1 ?
< 5.06
